TEST_DETAILS: chemical genetic growth profiling, strain panel (AID 1159580);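 further: tested at 20 µM; growth read once vehicle control cultures reached saturation at 30 °C; 1 = growth at the plate median or of vehicle wells; lower values mean less growth of the strain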
EXPERIMENTAL_CONDITIONS: S. cerevisiae deletion strains, growth OD, locus YDL101C, strain DUN1, active compounds read low
About 2,000 (36%) of roughly 5,500 compounds were called active. Roughly 18% stayed inconclusive and do not appear here. The list shows a part of the results.
READOUT_TYPE: normalized growth
Respond using a number only.

query: Look up and state reported normalized growth for CC(=O)C1C(=O)CC(c2ccc(Cl)cc2)CC1=O (stereo not given)
result: 0.425

query: Let me know recorded normalized growth for NCCc1c[nH]c2ccccc12 , thanks.
result: 0.987

query: Give normalized growth for the following molecule: Cc1onc(-c2ccccc2)c1C(=O)NC1C(=O)N2[C@@H]1SC(C)(C)[C@@H]2C(=O)O (stereo not given in full)
result: 1.02

query: // Input: COc1cccc(OC)c1C(=O)N[C@@H]1C(=O)N2[C@@H]1SC(C)(C)[C@@H]2C(=O)O . Output its normalized growth only.
result: 1

query: Answer with the recorded normalized growth for the molecule listed here: CC(NCCC(c1ccccc1)c1ccccc1)c1ccccc1 (stereo not given)
result: 0.971

query: Read off the recorded normalized growth for COC(=O)c1scc(S(=O)(=O)C(C)C)c1N/N=C(/C#N)C(=O)c1ccccc1
result: 0.986

query: # return recorded normalized growth for input Cc1onc(-c2c(Cl)cccc2Cl)c1C(=O)N[C@@H]1C(=O)N2[C@@H]1SC(C)(C)[C@@H]2C(=O)O
result: 1.01

query: Give me measured normalized growth, please, for this molecule: CC1(C)S[C@@H]2[C@H](NC(=O)Cc3ccccc3)C(=O)N2[C@H]1C(=O)O
result: 1.01

query: Given the molecule CC1=NN(c2ccccc2)C(=O)C1 , write its reported normalized growth.
result: 0.957

query: Supply recorded normalized growth for CC(C)(C)c1ccc(-c2cc(N)c(C(N)=O)s2)cc1 here.
result: 1.01

query: Indicate the recorded normalized growth value for this molecule: COc1cc2c(cc1O)CCNC2C (stereo not given)
result: 0.989

query: Supply reported normalized growth belonging to this molecule: Cc1onc(-c2ccccc2Cl)c1C(=O)N[C@@H]1C(=O)N2[C@@H]1SC(C)(C)[C@@H]2C(=O)O
result: 1.01

query: Identify the reported normalized growth for the following entry. NC(N)=NC(N)=Nc1ccccc1
result: 1.02

query: Answer with reported normalized growth of CC(=O)Oc1cc2c(c(C)c1OC(C)=O)CC1OC13C2(C)CCC1(C)C2CC(C)(C(=O)O)CCC2(C)CCC13C (stereo not given)
result: 1.01

query: Output measured normalized growth for this item: CC(=O)N[C@@H](Cc1c[nH]c2ccccc12)C(=O)O
result: 1.02

query: Name the recorded normalized growth of the item COc1ccc2c(c1)[C@]13CCCC[C@H]1[C@H](C2)N(C)CC3 in your answer.
result: 1

query: Name the recorded normalized growth of the molecule listed here: CC(C)(C)C1=NN(c2ccccc2)C(=O)C1
result: 0.983

query: Give the reported normalized growth for this molecule. CN1C(=O)CCS(=O)(=O)C1c1ccc(Cl)cc1 (stereo not given)
result: 1.02

query: Specify normalized growth for CC(C)(C)c1ccc(CSc2nc(N)cc(=O)[nH]2)cc1 and stop.
result: 0.981

query: For the molecule CNC(Cc1c[nH]c2ccccc12)C(=O)O (stereo not given) , report normalized growth.
result: 0.982
